Provide the reported fold in parentheses (palivizumab = 1) of each item.
# Test target: Bac-F (respiratory syncytial virus)
# Sequence (P03420 26-524): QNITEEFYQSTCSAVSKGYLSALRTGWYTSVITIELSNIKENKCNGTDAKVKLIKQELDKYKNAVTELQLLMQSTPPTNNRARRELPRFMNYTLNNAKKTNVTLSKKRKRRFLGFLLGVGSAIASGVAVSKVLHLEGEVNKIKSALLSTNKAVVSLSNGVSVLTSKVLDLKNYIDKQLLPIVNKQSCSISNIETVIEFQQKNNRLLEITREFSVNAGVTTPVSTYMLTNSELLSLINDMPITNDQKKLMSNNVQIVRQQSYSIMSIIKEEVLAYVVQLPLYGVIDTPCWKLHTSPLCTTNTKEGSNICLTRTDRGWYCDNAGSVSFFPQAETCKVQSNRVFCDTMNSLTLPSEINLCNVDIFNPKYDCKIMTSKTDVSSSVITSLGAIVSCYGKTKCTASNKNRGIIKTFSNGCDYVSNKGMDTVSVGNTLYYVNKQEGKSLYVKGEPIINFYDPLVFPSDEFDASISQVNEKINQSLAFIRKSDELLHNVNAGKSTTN
# Assay notes: SPR (BIAcore), mAb vs Bac-F (1:1)
Report as a plain number; the unit fold is understood.

// query Using the record for P12f4 IgG (antibody, V domains shown) VH: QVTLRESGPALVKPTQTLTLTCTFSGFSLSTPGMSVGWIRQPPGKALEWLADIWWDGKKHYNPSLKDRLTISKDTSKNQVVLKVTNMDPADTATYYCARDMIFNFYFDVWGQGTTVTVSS VL: DIQMTQSPSTLSASVGDRVTITCSLSSRVGYMHWYQQKPGKAPKLLIYDTRGLPSGVPSRFSGSGSGTEFTLTISSLQPDDFATYYCFQGSGYPFTFGGGTKVEIKR , state its measured fold in parentheses (palivizumab = 1).
// result 35

// query Using the record for P12f2 IgG (antibody, V domains shown) VH: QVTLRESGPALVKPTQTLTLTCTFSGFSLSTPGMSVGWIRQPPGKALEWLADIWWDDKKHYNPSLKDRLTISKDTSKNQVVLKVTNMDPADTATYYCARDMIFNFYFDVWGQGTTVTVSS VL: DIQMTQSPSTLSASVGDRVTITCSLSSRVGYMHWYQQKPGKAPKLLIYDTFYLSSGVPSRFSGSGSGTEFTLTISSLQPDDFATYYCFQGSGYPFTFGGGTKVEIKR , state its measured fold in parentheses (palivizumab = 1).
// result 13

// query Using the record for A12a6 IgG (antibody, V domains shown) VH: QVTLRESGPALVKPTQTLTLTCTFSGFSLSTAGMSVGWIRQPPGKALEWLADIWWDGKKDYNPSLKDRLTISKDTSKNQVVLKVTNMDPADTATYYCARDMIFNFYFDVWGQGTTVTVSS VL: DIQMTQSPSTLSASVGDRVTITCSASSRVGYMHWYQQKPGKAPKLLIYDTFKLSSGVPSRFSGSGSGTEFTLTISSLQPDDFATYYCFQGSGYPFTFGGGTKVEIKR , state its measured fold in parentheses (palivizumab = 1).
// result 98
